Kindly find below pKi information for Prothrombin (Homo sapiens, UniProt P00734) taken from the literature.
pKi: −log10 of the molar value.
endpoint: pKi

compound	target entity	reported result
CC1(C)C2CC3OB(C(CCCNS(C)(=O)=O)NC(=O)[C@@H]4CCCN4C(=O)[C@H](N)Cc4ccccc4)OC3(C)C1C2 (stereo partly shown)	Prothrombin (Homo sapiens, UniProt P00734)	> 6.30
Cc1cc(-c2cccc(NC(=O)OC(C)(C)C)c2)ccc1C(=O)N[C@@H](CCCNC(=N)N)B1O[C@@H]2C[C@@H]3C[C@@H](C3(C)C)[C@]2(C)O1	Prothrombin (Homo sapiens, UniProt P00734)	> 6.30
N=C(N)c1ccc(CNC(=O)c2cnn(Cc3ccccc3)c2)cc1	Prothrombin (Homo sapiens, UniProt P00734)	< 5.00
C[C@@H](C(=O)N1CCOCC1)N1CC[C@H](NS(=O)(=O)CCc2ccc(Br)cc2)C1=O	Prothrombin (Homo sapiens, UniProt P00734)	> 7.60
Cc1cnc(NCCc2ccccc2)c(=O)n1CCCNc1ccncc1	Prothrombin (Homo sapiens, UniProt P00734)	6.52 to 7.00
Cc1ccc(CS(=O)(=O)N[C@H](CO)C(=O)NCC(=O)NCc2ccc(C(=N)N)cc2)cc1	Prothrombin (Homo sapiens, UniProt P00734)	5.10
O=C([C@H](Cc1cscn1)N1CC[C@H](NS(=O)(=O)CCc2ccc(Cl)cc2)C1=O)N1CCOCC1	Prothrombin (Homo sapiens, UniProt P00734)	> 6.70

* * *

Kindly find below Ki information for Prothrombin (Homo sapiens) taken from the literature.

compound	Ki
CC[C@H](C)[C@@H](C(=O)N1CCOCC1)N1CC[C@H](NS(=O)(=O)CCc2ccc(Cl)cn2)C1=O	< 25 nM
N=C(N)c1ccc(N)c(C(=O)N[C@@H](C(=O)NCC2CCC(CN)CC2)c2ccccc2)c1 (mixture of isomers)	1020 nM
N=C(N)c1ccc(C[C@@H](NC(=O)NNS(=O)(=O)c2ccc3ccccc3c2)C(=O)N2CCCCC2)cc1	2.6 nM
CC[C@H](C)[C@@H](C(=O)N1CCOCC1)N1CC[C@H](NS(=O)(=O)/C=C(\F)c2ccc(Cl)cc2)C1=O	< 200 nM
O=C([C@H](Cc1cccs1)N1CC[C@H](NS(=O)(=O)CCc2ccc(Cl)s2)C1=O)N1CCOCC1	< 10 nM
Cc1noc(C[C@@H](C(=O)N2CCOCC2)N2CC[C@H](NS(=O)(=O)CCc3ccc(Cl)s3)C2=O)n1	< 25 nM
Nc1noc2ccc(-n3nc(C(F)(F)F)c4c3C(=O)N(C3CCN(N5CCOCC5=O)CC3)CC4)cc12	≥ 1000 nM
N=C(N)c1ccc(CNC(=O)[C@H](CN)NC(=O)[C@@H](CO)NS(=O)(=O)Cc2ccccc2)cc1	780 nM
O=C(C(C1CCOCC1)N1CC[C@H](NS(=O)(=O)CCc2ccc(Cl)s2)C1=O)N1CCOCC1 (some centres unmarked)	< 200 nM
CC(C)(C)OC(=O)Nc1cccc(-c2ccc(C(=O)N[C@@H](CCCNC(=N)N)B3OC4CC5CC(C5(C)C)C4(C)O3)s2)c1 (single isomer, unassigned)	< 500 nM
Cc1cnc(NCC(F)(F)c2ccccc2)c(=O)n1CCCNc1ccncc1	≤ 100 nM
CNC(=NC#N)NCCCC(NC(=O)C1CCCN1C(=O)C(Cc1ccccc1)NC(=O)OC(C)(C)C)B1OC2CC3CC(C3(C)C)C2(C)O1 (centres unmarked)	< 500 nM
O=C(C(c1cccnc1)N1CC[C@H](NS(=O)(=O)CCc2ccc(Cl)s2)C1=O)N1CCOCC1 (mixture of isomers)	< 50 nM
C=CCN(CCC(=O)O)C(=O)[C@H](CC(=O)NC[C@@H]1CCCN(C(=N)N)C1)NS(=O)(=O)c1ccc2ccccc2c1	0.56 nM

* * *

Kindly find below Ki information for Prothrombin (Homo sapiens, UniProt P00734) taken from the literature.
endpoint: Ki

compound	reported result
CC1(C)[C@@H]2C[C@H]3OB([C@H](CCCCN)NC(=O)Cn4nc(-c5cccc([N+](=O)[O-])c5)nc4Cc4ccccc4)O[C@@]3(C)[C@H]1C2	< 500 nM
CC(C)(C)OC(=O)NC(Cc1ccccc1)C(=O)N1CCCC1C(=O)NC(CC1CCC(N=C(N)N)CC1)B1OC2CC3CC(C3(C)C)C2(C)O1 (stereo not drawn)	< 500 nM
COc1ccc(-n2nc(C(N)=O)c3c2C(=O)N(C2CCN(N4CCCCC4=O)CC2)CC3)cc1	≥ 1000 nM

* * *

Kindly find below Ki information for Prothrombin (Homo sapiens, UniProt P00734) taken from the literature.

molecule	Ki
C[C@@H](C(=O)N1CCOCC1)N1CC[C@H](NS(=O)(=O)CC2CCc3cc(Cl)ccc32)C1=O (stereo partly shown)	< 100 nM
CC(=O)NC(Cc1ccccc1)C(=O)N1CCCC1C(=O)NC(CCCCC(=N)N)B1OC2CC3CC(C3(C)C)C2(C)O1 (stereo not shown)	< 500 nM
CCOC[C@@H](C(=O)N1CCOCC1)N1CC[C@H](NS(=O)(=O)CCc2ccc(Cl)cc2)C1=O	< 25 nM
Cc1ccc(NS(=O)(=O)Cc2ccccc2)c(=O)n1CCCNc1ncnc2[nH]cnc12	100 to 300 nM
CC1(C)C2CC3OB(C(Cc4cccc(C#N)c4)NC(=O)C4CCCN4C(=O)C(N)Cc4cccnc4)OC3(C)C1C2 (stereo not shown)	< 500 nM
NC(=O)c1nn(-c2ccc(OC(F)(F)F)cc2)c2c1CCN(C1CCN(N3CCOCC3=O)CC1)C2=O	≥ 1000 nM
CC(C)(C)OC(=O)N[C@H](Cc1ccccc1)C(=O)N1CCCC1C(=O)NC(CCCNS(C)(=O)=O)B1OC2CC3CC(C3(C)C)C2(C)O1 (stereo partly shown)	< 500 nM

* * *

Kindly find below Ki information for Prothrombin (Homo sapiens) taken from the literature.

compound	target entity	Ki
O=C([C@H](Cc1cscn1)N1CC[C@H](NS(=O)(=O)CCc2ccc(Cl)s2)C1=O)N1CCOCC1	Prothrombin (Homo sapiens)	< 50 nM
CC[C@@H](C(=O)N1CCOCC1)N1CC[C@H](NS(=O)(=O)CCc2ccc(Cl)s2)C1=O	Prothrombin (Homo sapiens)	< 25 nM
CC(=O)NC(Cc1ccccc1)C(=O)N1CCCC1C(=O)NC(Cc1ccc(CN)cc1)B1OC2CC3CC(C3(C)C)C2(C)O1 (stereo not drawn)	Prothrombin (Homo sapiens)	< 500 nM
C[C@@H](C(=O)N1CCOCC1)N1CC[C@H](NS(=O)(=O)CCc2ccc(Cl)cn2)C1=O	Prothrombin (Homo sapiens)	< 100 nM
CCOC[C@@H](C(=O)N1CCOCC1)N1CC[C@H](NS(=O)(=O)CC(C)c2ccc(Cl)s2)C1=O (stereo partly drawn)	Prothrombin (Homo sapiens)	< 25 nM
CC(C)(C)OC(=O)Nc1cc(-c2ccccc2)ccc1C(=O)N[C@@H](CCCNC(=N)N)B1O[C@@H]2C[C@@H]3C[C@@H](C3(C)C)[C@]2(C)O1	Prothrombin (Homo sapiens)	< 500 nM
Cc1ccc(NS(=O)(=O)Cc2ccc(Cl)cc2)c(=O)n1CCCNc1ccncc1F	Prothrombin (Homo sapiens)	≤ 100 nM
CN(CC(=O)NC(Cc1cccc(C#N)c1)B1OC2CC3CC(C3(C)C)C2(C)O1)C(=O)C(Cc1ccccc1)NC(=O)OC(C)(C)C (stereo not drawn)	Prothrombin (Homo sapiens)	< 500 nM
Cc1ccc(NS(=O)(=O)Cc2ccccc2)c(=O)n1CCCNc1ccncc1	Prothrombin (Homo sapiens)	≤ 100 nM
CC1(C)C2CC3OB([C@H](CCCCN)NC(=O)c4cnc(-c5ccccc5)nc4-c4ccccc4)OC3(C)C1C2 (single isomer, unassigned)	Prothrombin (Homo sapiens)	< 500 nM
N=C(N)c1cccc(C(=O)N[C@@H](C(=O)N2CCC(C(=O)c3ccccc3)CC2)c2ccccc2)c1	Prothrombin (Homo sapiens)	1100 nM
Cc1ncc(COc2ccc(C(=N)N)cc2)c(C(F)F)c1OCc1ccc(C(=N)N)cc1	Prothrombin (Homo sapiens)	510 nM
CC1(C)[C@@H]2C[C@H]3OB([C@H](CCCCN)NC(=O)Cn4nc(Cc5ccccc5)nc4Cc4ccccc4)O[C@@]3(C)[C@H]1C2	Prothrombin (Homo sapiens)	< 500 nM
CC[C@H](C)[C@@H](C(=O)N1CCOCC1)N1CC[C@H](N(CC(=O)NC)S(=O)(=O)CCc2ccc(Cl)s2)C1=O	Prothrombin (Homo sapiens)	< 25 nM
Cc1ncc(CNc2ccc(-c3ccc(C(=N)N)cc3)cn2)c(CO)c1OCc1ccc(C(=N)N)cc1	Prothrombin (Homo sapiens)	11000 nM
COc1ccc(-n2nc(/C(N)=N\C#N)c3c2C(=O)N(C2CCN(N4CCCCC4=O)CC2)CC3)cc1	Prothrombin (Homo sapiens)	≥ 1000 nM
CC1(C)C2CC3OB([C@H](CCCCN)NC(=O)Cn4nc(Cc5ccccc5)nc4CO)OC3(C)C1C2 (single isomer, unassigned)	Prothrombin (Homo sapiens)	< 500 nM
COC[C@H]1CCCN1c1ccc2c(c1)OC[C@H]1[C@H](CNC(=O)c3ccc(Cl)s3)OC(=O)N21	Prothrombin (Homo sapiens)	> 1000 nM
Cc1noc(C[C@@H](C(=O)N2CCOCC2)N2CC[C@H](NS(=O)(=O)CC(C)c3ccc(Cl)s3)C2=O)n1 (stereo partly drawn)	Prothrombin (Homo sapiens)	< 50 nM
Cc1nc(-c2ccccc2)nn1CC(=O)N[C@@H](CCCCN)B1OC2CC3CC(C3(C)C)C2(C)O1 (single isomer, unassigned)	Prothrombin (Homo sapiens)	< 500 nM
COCCCC(NC(=O)[C@@H]1CCCN1C(=O)[C@@H](Cc1ccccc1)NC(=O)[C@@H]1CCCN1)B1OC2CC3CC(C3(C)C)C2(C)O1 (stereo partly drawn)	Prothrombin (Homo sapiens)	< 500 nM
N=C(N)c1cccc(C(=O)N[C@@H](C(=O)NC2C3CC4CC(C3)CC2C4)c2ccccc2)c1 (stereo partly drawn)	Prothrombin (Homo sapiens)	4790 nM
N=C(N)NCCC[C@H](NC(=O)[C@@H]1CC[C@H]2C(=O)N(CCCc3ccccc3)CC(=O)N12)C(=O)c1nccs1	Prothrombin (Homo sapiens)	3 nM
NCCCC[C@H](NC(=O)Cn1nc(Cc2ccccc2)nc1-c1ccccc1)B(O)O	Prothrombin (Homo sapiens)	< 500 nM
CC(C)(C)OC(=O)NC(Cc1ccccc1)C(=O)N1CCCC1C(=O)NC(CCCONC(=N)N)B1OC2CC3CC(C3(C)C)C2(C)O1 (stereo not drawn)	Prothrombin (Homo sapiens)	< 500 nM
O=C([C@H](Cc1ccccc1)N1CC[C@H](NS(=O)(=O)CCc2ccc(Cl)s2)C1=O)N1CCOCC1	Prothrombin (Homo sapiens)	< 25 nM
Cc1noc(C[C@@H](C(=O)N2CCOCC2)N2CC[C@H](NS(=O)(=O)CCc3ccc(Cl)cc3)C2=O)n1	Prothrombin (Homo sapiens)	< 100 nM
